Reference for the values: paper PMC7576996

Below: a set of entries, each annotated with reported CC50 at 48 h.
test: Cytotoxicity assay in J774A1 macrophages (MTT, 48 h); assay type: cell-based; conditions: mouse, pH 7.2, J774A1, 50% inhibition of growth
Give the value, in units of µM, as a plain number.

A selection of reference data follows.
structureSmiles	CC50 at 48 h (µM)
COc1ccc(-c2c(C=NN=C(N)SC)c(C(F)(F)F)nn2-c2ccccc2)cc1	123
NC(=S)NN=Cc1c(C(F)(F)F)nn(-c2ccccc2)c1-c1ccc(Cl)cc1	402
CSC(N)=NN=Cc1c(C(F)(F)F)nn(-c2ccccc2)c1-c1ccc(Br)cc1	147

Return reported CC50 at 48 h; argument: Nc1nnc(-c2c(C(F)(F)F)nn(-c3ccccc3)c2-c2ccc(F)cc2)s1
249

Return reported CC50 at 48 h; argument: O=Cc1c(C(F)(F)F)nn(-c2ccccc2)c1-c1ccc([N+](=O)[O-])cc1
245

---

tested on: promastigote form of Leishmania amazonensis; assay: Antiproliferative assay, promastigote form of Leishmania amazonensis (XTT, 72 h); type: cell-based; conditions: LLCMK2 vs promastigotes
measuredProperty: SI L-E, selectivity index (Epithelial CC50/L. amazonensis IC50)
# output: bare number, no unit

A selection of reference data follows.
structureSmiles	numericResult
Nc1nnc(-c2c(C(F)(F)F)nn(-c3ccccc3)c2-c2ccc(Cl)cc2)s1	9.68
CSC(N)=NN=Cc1c(C(F)(F)F)nn(-c2ccccc2)c1-c1ccc(Br)cc1	8.20
COc1ccc(-c2c(C=NNC(N)=S)c(C(F)(F)F)nn2-c2ccccc2)cc1	6.91

Return reported SI L-E, selectivity index (Epithelial CC50/L. amazonensis IC50); argument: Nc1nnc(-c2c(C(F)(F)F)nn(-c3ccccc3)c2-c2ccc([N+](=O)[O-])cc2)s1
10.78

Return reported SI L-E, selectivity index (Epithelial CC50/L. amazonensis IC50); argument: NC(=S)NN=Cc1c(C(F)(F)F)nn(-c2ccccc2)c1-c1ccc(Cl)cc1
8.45

Return reported SI L-E, selectivity index (Epithelial CC50/L. amazonensis IC50); argument: Nc1nnc(-c2c(C(F)(F)F)nn(-c3ccccc3)c2-c2ccccc2)s1
5.04

Return reported SI L-E, selectivity index (Epithelial CC50/L. amazonensis IC50); argument: CSC(N)=NN=Cc1c(C(F)(F)F)nn(-c2ccccc2)c1-c1ccc(Cl)cc1
9.68

Return reported SI L-E, selectivity index (Epithelial CC50/L. amazonensis IC50); argument: COc1ccc(-c2c(-c3nnc(N)s3)c(C(F)(F)F)nn2-c2ccccc2)cc1
7.83

Return reported SI L-E, selectivity index (Epithelial CC50/L. amazonensis IC50); argument: CSC(N)=NN=Cc1c(C(F)(F)F)nn(-c2ccccc2)c1-c1ccc([N+](=O)[O-])cc1
9.64

Return reported SI L-E, selectivity index (Epithelial CC50/L. amazonensis IC50); argument: CSC(N)=NN=Cc1c(C(F)(F)F)nn(-c2ccccc2)c1-c1ccc(F)cc1
3.48

---

assay: Cytotoxicity assay in LLCMK2 epithelial cells (MTT, 72 h); type: cell-based; details: Macaca mulatta, LLCMK2 kidney epithelial cells, pH 7.2, LLCMK2, 50% inhibition of growth
Below: a set of entries, each annotated with reported CC50 at 72 h.
Give the value, in units of µM, as a plain number.

A selection of reference data follows.
structureSmiles	CC50 at 72 h [µM]
COc1ccc(-c2c(C=NN=C(N)SC)c(C(F)(F)F)nn2-c2ccccc2)cc1	101
NC(=S)NN=Cc1c(C(F)(F)F)nn(-c2ccccc2)c1-c1ccc(Cl)cc1	377
NC(=S)NN=Cc1c(C(F)(F)F)nn(-c2ccccc2)c1-c1ccc(Br)cc1	148
Nc1nnc(-c2c(C(F)(F)F)nn(-c3ccccc3)c2-c2ccc(F)cc2)s1	146
CSC(N)=NN=Cc1c(C(F)(F)F)nn(-c2ccccc2)c1-c1ccc(Cl)cc1	297

Return reported CC50 at 72 h; argument: CSC(N)=NN=Cc1c(C(F)(F)F)nn(-c2ccccc2)c1-c1ccc(F)cc1
119

Return reported CC50 at 72 h; argument: NC(=S)NN=Cc1c(C(F)(F)F)nn(-c2ccccc2)c1-c1ccc(F)cc1
346

Return reported CC50 at 72 h; argument: CSC(N)=NN=Cc1c(C(F)(F)F)nn(-c2ccccc2)c1-c1ccc(Br)cc1
114

Return reported CC50 at 72 h; argument: COc1ccc(-c2c(C=NNC(N)=S)c(C(F)(F)F)nn2-c2ccccc2)cc1
155

Return reported CC50 at 72 h; argument: Nc1nnc(-c2c(C(F)(F)F)nn(-c3ccccc3)c2-c2ccc([N+](=O)[O-])cc2)s1
211

---

assay: Cytotoxicity assay in J774A1 macrophages (MTT, 48 h); format: cell-based; settings: mouse, pH 7.2, J774A1, 50% inhibition of growth
measuredProperty: CC50 at 48 h (µM)
Give the value, in units of µM, as a plain number.

Return reported CC50 at 48 h; argument: NC(=S)NN=Cc1c(C(F)(F)F)nn(-c2ccccc2)c1-c1ccc(Br)cc1
170

Return reported CC50 at 48 h; argument: Nc1nnc(-c2c(C(F)(F)F)nn(-c3ccccc3)c2-c2ccccc2)s1
340

Return reported CC50 at 48 h; argument: NC(=S)NN=Cc1c(C(F)(F)F)nn(-c2ccccc2)c1-c1ccc(F)cc1
203

Return reported CC50 at 48 h; argument: NC(=S)NN=Cc1c(C(F)(F)F)nn(-c2ccccc2)c1-c1ccccc1
400

Return reported CC50 at 48 h; argument: CSC(N)=NN=Cc1c(C(F)(F)F)nn(-c2ccccc2)c1-c1ccccc1
326

Return reported CC50 at 48 h; argument: NC(=S)NN=Cc1c(C(F)(F)F)nn(-c2ccccc2)c1-c1ccc([N+](=O)[O-])cc1
243

Return reported CC50 at 48 h; argument: Nc1nnc(-c2c(C(F)(F)F)nn(-c3ccccc3)c2-c2ccc(Cl)cc2)s1
385

Return reported CC50 at 48 h; argument: COc1ccc(-c2c(-c3nnc(N)s3)c(C(F)(F)F)nn2-c2ccccc2)cc1
156

Return reported CC50 at 48 h; argument: Nc1nnc(-c2c(C(F)(F)F)nn(-c3ccccc3)c2-c2ccc([N+](=O)[O-])cc2)s1
285

---

system: epimastigote form of Trypanosoma cruzi; test: Antiproliferative assay, epimastigote form of Trypanosoma cruzi (XTT, 96 h); format: cell-based; settings: J774A1 vs epimastigotes
measuredProperty: SI T-M, selectivity index (Macrophages CC50/T. cruzi IC50)
# output: bare number, no unit

A selection of reference data follows.
structureSmiles	numericResult
CSC(N)=NN=Cc1c(C(F)(F)F)nn(-c2ccccc2)c1-c1ccc(Cl)cc1	8.09
NC(=S)NN=Cc1c(C(F)(F)F)nn(-c2ccccc2)c1-c1ccc(Cl)cc1	8.17
O=Cc1c(C(F)(F)F)nn(-c2ccccc2)c1-c1ccc([N+](=O)[O-])cc1	3.03
NC(=S)NN=Cc1c(C(F)(F)F)nn(-c2ccccc2)c1-c1ccc(F)cc1	2.92
NC(=S)NN=Cc1c(C(F)(F)F)nn(-c2ccccc2)c1-c1ccc([N+](=O)[O-])cc1	5.32
Nc1nnc(-c2c(C(F)(F)F)nn(-c3ccccc3)c2-c2ccc(Br)cc2)s1	5.51
Nc1nnc(-c2c(C(F)(F)F)nn(-c3ccccc3)c2-c2ccc([N+](=O)[O-])cc2)s1	9.84
NC(=S)NN=Cc1c(C(F)(F)F)nn(-c2ccccc2)c1-c1ccccc1	4.81

API: value(readout=SI T-M, selectivity index (Macrophages CC50/T. cruzi IC50), system=epimastigote form of Trypanosoma cruzi) for record COc1ccc(-c2c(-c3nnc(N)s3)c(C(F)(F)F)nn2-c2ccccc2)cc1
6.86

---

Below: a set of entries, each annotated with reported SI T-M, selectivity index (Macrophages CC50/T. cruzi IC50).
test system: epimastigote form of Trypanosoma cruzi; test: Antiproliferative assay, epimastigote form of Trypanosoma cruzi (XTT, 96 h); assay type: cell-based; settings: J774A1 vs epimastigotes
# output: bare number, no unit

molecule	testedSystem	numericResult
Nc1nnc(-c2c(C(F)(F)F)nn(-c3ccccc3)c2-c2ccccc2)s1 [4e]	epimastigote form of Trypanosoma cruzi	5.18

// below: SI T-M, selectivity index (Macrophages CC50/T. cruzi IC50) requested for another molecule
Return reported SI T-M, selectivity index (Macrophages CC50/T. cruzi IC50); argument: NC(=S)NN=Cc1c(C(F)(F)F)nn(-c2ccccc2)c1-c1ccc(Br)cc1 [2d]
5.60

---

test system: promastigote form of Leishmania amazonensis; test: Antiproliferative assay, promastigote form of Leishmania amazonensis (XTT, 72 h); type: cell-based; conditions: LLCMK2 vs promastigotes
measuredProperty: SI L-E, selectivity index (Epithelial CC50/L. amazonensis IC50)
# output: bare number, no unit

A selection of reference data follows.
structureSmiles	numericResult
Nc1nnc(-c2c(C(F)(F)F)nn(-c3ccccc3)c2-c2ccc(F)cc2)s1	3.63
NC(=S)NN=Cc1c(C(F)(F)F)nn(-c2ccccc2)c1-c1ccc(Br)cc1	7.85
NC(=S)NN=Cc1c(C(F)(F)F)nn(-c2ccccc2)c1-c1ccc(F)cc1	6.97
Nc1nnc(-c2c(C(F)(F)F)nn(-c3ccccc3)c2-c2ccc(Br)cc2)s1	8.17

Return reported SI L-E, selectivity index (Epithelial CC50/L. amazonensis IC50); argument: O=Cc1c(C(F)(F)F)nn(-c2ccccc2)c1-c1ccc([N+](=O)[O-])cc1
5.76

Return reported SI L-E, selectivity index (Epithelial CC50/L. amazonensis IC50); argument: NC(=S)NN=Cc1c(C(F)(F)F)nn(-c2ccccc2)c1-c1ccccc1
6.39

Return reported SI L-E, selectivity index (Epithelial CC50/L. amazonensis IC50); argument: NC(=S)NN=Cc1c(C(F)(F)F)nn(-c2ccccc2)c1-c1ccc([N+](=O)[O-])cc1
11.33

Return reported SI L-E, selectivity index (Epithelial CC50/L. amazonensis IC50); argument: CSC(N)=NN=Cc1c(C(F)(F)F)nn(-c2ccccc2)c1-c1ccccc1
4.53

Return reported SI L-E, selectivity index (Epithelial CC50/L. amazonensis IC50); argument: COc1ccc(-c2c(C=NN=C(N)SC)c(C(F)(F)F)nn2-c2ccccc2)cc1
7.13
